Assay: Compound cytotoxicity, XTT-based colorimetric assay
Type: cell-based
Details: human; uninfected MT2 cells, day 4, XTT; read-out: CC50
Attribute: CC50 at 4 days

Some entries whose results are on file:
CN1CCN(c2ccc3c(=O)n(-c4ccc(Cl)c5c(NS(C)(=O)=O)nn(C)c45)c([C@H](Cc4cc(F)cc(F)c4)NC(=O)Cn4nc(C(F)F)c5c4C(F)(F)[C@@H]4C[C@H]54)nc3c2)CC1 (atropisomer, axis not shown; (P)) : > 10 µM
O=C(Cn1nc(C(F)F)cc1C1CC1)N[C@@H](Cc1cc(F)cc(F)c1)c1nc2cc(N3CCOCC3)ccc2c(=O)n1-c1ccc(Cl)c2c(NS(=O)(=O)C3CC3)nn(CC(F)F)c12 (atropisomer, axis not shown; (P)) : > 1 µM
C[C@@H]1CN(c2ccc3c(=O)n(-c4ccc(Cl)c5c(NS(C)(=O)=O)nn(CC(F)F)c45)c([C@H](Cc4cc(F)cc(F)c4)NC(=O)Cn4nc(C5CC5)c5ccccc54)nc3c2)C[C@H](C)O1 (atropisomer, axis not shown; (P)) : > 0.5 µM

Now, please, on to the next compound.
Any idea what its CC50 at 4 days is? The compound is O=C(Cn1nc(C(F)F)c2c1C(F)(F)[C@@H]1C[C@H]21)N[C@@H](Cc1cc(F)cc(F)c1)c1nc2cc(N3CCOCC3)ccc2c(=O)n1-c1ccc(Cl)c2c(NS(=O)(=O)C3CC3)nn(CC(F)F)c12 (atropisomer, axis not shown; (P))
> 0.5 µM

All values here come from patent US20210395262A1.
